Catalogue of PBM binding z-score values
- Test system: PPARg:RXRa 30nM:10nM, anti-RXR (NR concentration 30 nM, RXRa partner concentration 10 nM)
- TEST DETAILS: PBM binding z-score (relative to random genomic background probes); higher = stronger binding; sequences stand for … in GC…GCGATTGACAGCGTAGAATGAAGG

SEQUENCE ENTRY	TARGET OR SYSTEM	VALUE MEASURED
TCTTGTACATCAAAGGTTAAGAAAGCCGAAGCCT	PPARg:RXRa 30nM:10nM, anti-RXR (NR concentration 30 nM, RXRa partner concentration 10 nM)	3.95

# return recorded PBM binding z-score for input "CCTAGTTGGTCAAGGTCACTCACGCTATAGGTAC"
0.743

# return recorded PBM binding z-score for input "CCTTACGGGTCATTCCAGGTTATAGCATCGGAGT"
1.14

# return recorded PBM binding z-score for input "CAAACTAGGTCACTGAGGTCAAAGTCCGTGCGTA"
5.72

# return recorded PBM binding z-score for input "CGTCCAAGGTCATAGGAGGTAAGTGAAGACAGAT"
1.76

# return recorded PBM binding z-score for input "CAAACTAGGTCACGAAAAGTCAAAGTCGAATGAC"
5.91

# return recorded PBM binding z-score for input "CAAACTAGGTCACAGAGGTGAAAGTCCGTGCGTA"
5.73

# return recorded PBM binding z-score for input "AGAATGATGTTATTAAGATCAGGGAATTGCGGTC"
-0.179

# return recorded PBM binding z-score for input "CAAACTATGTCAAGGTCAAAGTCGGTTTGTGCCA"
2.24

# return recorded PBM binding z-score for input "TCTAGCAGGCCAGAGGGTCACTCGAGAGGTACGG"
1.79

# return recorded PBM binding z-score for input "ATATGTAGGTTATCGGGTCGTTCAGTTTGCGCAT"
2.24

# return recorded PBM binding z-score for input "AGACTGAGGTTATACGTAGATCAGGGAAGAAAGT"
0.367

# return recorded PBM binding z-score for input "CAAACTAGGTCAAGAGTTCAAAGTCCGCTTCCCG"
6.8

# return recorded PBM binding z-score for input "CGTCAAAGTTTAACTAAGGTAACGTAAAGCACGC"
0.174

# return recorded PBM binding z-score for input "CGAACTAGGTCATCCAGGACAGTGACTACATTGA"
3.94

# return recorded PBM binding z-score for input "ACTATTAGTTGAGACGAGTGCAACCGATAGGTTG"
-0.299

---

- System: RXRa DBDmut IVT, anti-RXR (DBD mutation: RXRa K156A/R161A, NR concentration 90 nM)
- TEST DETAILS: PBM binding z-score (relative to random genomic background probes); higher = stronger binding; sequences stand for … in GC…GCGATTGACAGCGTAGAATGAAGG
Catalogue of PBM binding z-score values
Lab note: record the figure alone, no unit after it.

Answered cases to consult:
SEQUENCE ENTRY	TARGET OR SYSTEM	QUANTITY NAME	VALUE MEASURED
CCTTACGGGTCACTCCAGGTTATAACATCGGAGT	RXRa DBDmut IVT, anti-RXR (DBD mutation: RXRa K156A/R161A, NR concentration 90 nM)	PBM binding z-score	1.31
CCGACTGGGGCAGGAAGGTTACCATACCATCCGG	RXRa DBDmut IVT, anti-RXR (DBD mutation: RXRa K156A/R161A, NR concentration 90 nM)	PBM binding z-score	-1.31
TCTATTGGTTGAAGGGCAACCGACGAGTCCGTTT	RXRa DBDmut IVT, anti-RXR (DBD mutation: RXRa K156A/R161A, NR concentration 90 nM)	PBM binding z-score	1.37
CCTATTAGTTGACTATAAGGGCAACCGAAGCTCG	RXRa DBDmut IVT, anti-RXR (DBD mutation: RXRa K156A/R161A, NR concentration 90 nM)	PBM binding z-score	0.543
TCTTGTAGATCAGCAGGTTAAGAAAGCTGGCCAA	RXRa DBDmut IVT, anti-RXR (DBD mutation: RXRa K156A/R161A, NR concentration 90 nM)	PBM binding z-score	0.476

# return recorded PBM binding z-score for input "CCTACTGGGCCATTCAGAGGTCGTTGATCATATG"
0.268

# return recorded PBM binding z-score for input "AGAACGGGGGCAATGAGTTGATAGCACGGGTGGC"
3.17

# return recorded PBM binding z-score for input "ACTATTAGTTGACATAGGGCAACCGATACGACGC"
0.826

# return recorded PBM binding z-score for input "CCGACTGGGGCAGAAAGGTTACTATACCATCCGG"
-0.158

# return recorded PBM binding z-score for input "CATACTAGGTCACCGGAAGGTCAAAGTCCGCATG"
2.21

# return recorded PBM binding z-score for input "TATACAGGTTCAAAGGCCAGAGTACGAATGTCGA"
4.01

# return recorded PBM binding z-score for input "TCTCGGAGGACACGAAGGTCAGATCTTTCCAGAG"
1.15

# return recorded PBM binding z-score for input "TCTATTAGTTGAAGCGCAACCGACGAGTCCGTTT"
1.16

# return recorded PBM binding z-score for input "CGTCCAAGGTCAGCAGGTCAGTGAAAGCGACGTG"
2.54

---

- Test system: PPARg DBDmut IVT, anti-PPARg (DBD mutation: PPARg1 K132A/R137A, NR concentration 270 nM)
- TEST DETAILS: PBM binding z-score (relative to random genomic background probes); higher = stronger binding; sequences stand for … in GC…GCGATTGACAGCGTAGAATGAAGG
Class (by PBM binding z-score) -- c1: < -1; c2: ≥ -1 and < 0.1; c3: ≥ 0.1

Known results for sequences:
SEQUENCE ENTRY	CLASS
TCGAGTAGGTTGGTCGGGGCATTCAGCCAACATA	c1
CCTCGGTGGACAGAAGGTCAGAGCTGTCCGCTTT	c1
ACTAGCAGGCCAAGGGTCGCTCAAGATTAGTCCG	c1

Given "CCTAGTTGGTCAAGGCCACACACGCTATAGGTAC" , name the class its PBM binding z-score places it in.
c3

---

- System: LXRa:RXRa (NR concentration 270 nM, RXRa partner concentration 90 nM)
- TEST DETAILS: PBM binding z-score (relative to random genomic background probes); higher = stronger binding; sequences stand for … in GC…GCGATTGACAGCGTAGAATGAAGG
Threshold rule: PBM binding z-score greater than or equal to 1 is rule met; below that, rule not met.

SEQUENCE ENTRY	CLASS
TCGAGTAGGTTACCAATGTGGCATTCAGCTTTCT	rule met
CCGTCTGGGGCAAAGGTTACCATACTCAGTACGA	rule met
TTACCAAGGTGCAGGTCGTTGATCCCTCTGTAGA	rule met
GGAACGAGGGCAAAGTTGCTAGCATCTGTCGACG	rule not met
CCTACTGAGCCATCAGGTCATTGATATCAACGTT	rule met

I'd appreciate it if you could say whether "ACTATAAGTTGACTTAGGGCAACCGATACGACGC" has PBM binding z-score at least equal to 1.
rule not met

I'd appreciate it if you could say whether "CGTCAAAGTTCACGGTAACGTAACAGAAAGCAGC" has PBM binding z-score at least equal to 1.
rule met

---

- Test system: LXRa:RXRa (NR concentration 270 nM, RXRa partner concentration 90 nM)
- TEST DETAILS: PBM binding z-score (relative to random genomic background probes); higher = stronger binding; sequences stand for … in GC…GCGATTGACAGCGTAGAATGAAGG
Threshold rule: PBM binding z-score greater than or equal to 2 is Met; below that, Not met.

SEQUENCE ENTRY	CLASS
CCTAGTTGGTCAAGGGCACACACGCTATAGGTAC	Not met

I'd appreciate it if you could say whether "ACTAGTTGGTCAGCTGACGTCACACACAATTCGG" has PBM binding z-score at least equal to 2.
Not met

I'd appreciate it if you could say whether "TCTATTAGTTGATTAGGGCAACCGGAACAGCGGA" has PBM binding z-score at least equal to 2.
Not met

I'd appreciate it if you could say whether "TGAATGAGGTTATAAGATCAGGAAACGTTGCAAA" has PBM binding z-score at least equal to 2.
Not met

I'd appreciate it if you could say whether "CAAACTAGGTCAAGACGTCAAAGTCCGCTTCCCG" has PBM binding z-score at least equal to 2.
Met

---

- System: LXRb homodimer (NR concentration 270 nM)
- TEST DETAILS: PBM binding z-score (relative to random genomic background probes); higher = stronger binding; sequences stand for … in GC…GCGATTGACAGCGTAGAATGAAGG
Class (by PBM binding z-score) -- low group = under -0.4, middle group = from -0.4 up to 0.02, high group = 0.02 and over

SEQUENCE ENTRY	CLASS
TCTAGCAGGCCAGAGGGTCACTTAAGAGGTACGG	low group
ATCGAAAGGTCGACGAGGTGAGCATACACCGTTT	high group

Given "CCTACTGGGCCAAGGTCATCGATCAGTCAAAGCA" , name the class its PBM binding z-score places it in.
low group

Given "ATACCAAGGCGATCGTGAGGTCGTTGATACTAAC" , name the class its PBM binding z-score places it in.
middle group
